Please provide measured Trimeric HA Binding RLU for the entries that follow.
assayed target: recombinant homotrimeric HA, A/northern shoveler/California/HKWF115/07 (Influenza A virus A/northern shoveler/California/HKWF115/2007 (H6N1))
assay remarks: trimeric HA microarray, transfection set 3
measurement setup: remark: other sources report otherwise
Report the figure in RLU without appending any unit label.

Record TCN-523 (5248_A17) (antibody, V domains shown) VH: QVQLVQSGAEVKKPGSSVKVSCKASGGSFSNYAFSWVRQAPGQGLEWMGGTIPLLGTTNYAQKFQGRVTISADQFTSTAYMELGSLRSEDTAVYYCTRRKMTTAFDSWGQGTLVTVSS VL: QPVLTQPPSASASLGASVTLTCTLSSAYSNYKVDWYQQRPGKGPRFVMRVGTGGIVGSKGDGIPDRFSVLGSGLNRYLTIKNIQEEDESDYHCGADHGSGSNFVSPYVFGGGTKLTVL , field Trimeric HA Binding RLU: 29400

Lab book: Trimeric HA Binding RLU of TCN-532 (5262_H18) (antibody, V domains shown) VH: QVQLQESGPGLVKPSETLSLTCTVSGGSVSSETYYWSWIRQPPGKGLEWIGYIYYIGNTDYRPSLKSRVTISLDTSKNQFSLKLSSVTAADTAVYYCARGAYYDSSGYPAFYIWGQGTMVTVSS VL: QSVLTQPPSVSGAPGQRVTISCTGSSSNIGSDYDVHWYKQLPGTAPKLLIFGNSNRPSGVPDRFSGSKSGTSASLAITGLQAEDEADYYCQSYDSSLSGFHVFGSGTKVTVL noted as 78

Reported Trimeric HA Binding RLU for TCN-530 (5248_H10a) (antibody, V domains shown) VH: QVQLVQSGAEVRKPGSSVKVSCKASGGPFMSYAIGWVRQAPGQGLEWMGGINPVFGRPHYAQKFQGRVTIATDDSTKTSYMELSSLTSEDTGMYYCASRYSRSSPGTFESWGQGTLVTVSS VL: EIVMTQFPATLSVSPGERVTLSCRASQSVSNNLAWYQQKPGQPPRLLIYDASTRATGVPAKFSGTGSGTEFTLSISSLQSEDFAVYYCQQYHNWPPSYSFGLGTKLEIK was 23500

For reference, reported Trimeric HA Binding RLU for TCN-533 (5256_A17) (antibody, V domains shown) VH: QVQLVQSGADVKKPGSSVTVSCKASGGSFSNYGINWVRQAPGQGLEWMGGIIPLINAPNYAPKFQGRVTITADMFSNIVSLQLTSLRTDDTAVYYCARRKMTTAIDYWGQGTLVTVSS VL: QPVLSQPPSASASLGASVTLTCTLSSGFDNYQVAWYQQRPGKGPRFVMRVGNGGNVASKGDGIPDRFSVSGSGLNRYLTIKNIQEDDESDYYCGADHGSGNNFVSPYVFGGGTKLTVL stands at 7810
